# assay.target: PIK3CG (human)
pIC50: −log10 of the molar value.
test.readout: pIC50

# chemical.structure, experimental.result
measured = [
    ("C[C@H](Nc1ncnc(N)c1C#N)c1nc2cccc(Cl)c2c(=O)n1-c1cccc(NC(=O)Nc2cccnc2C(F)(F)F)c1", 5.41),
]

----------
Below, each of the compounds is paired with its reported pIC50 value.
# assay.target: PIK3CB (Human)
# assay.comment: Enzyme Assay
pIC50: −log10 of the molar value.

# chemical.structure, assay.target, pIC50
records = [
    ("N#Cc1c(N)nc(N)nc1N1CCC[C@H]1c1nc2c(Cl)ccc(Cl)c2c(=O)n1-c1cccc(C(N)=O)c1", "PIK3CB (Human)", 7.29),
    ("C[C@H](Nc1ncnc(N)c1C#N)c1nc2cccc(Cl)c2c(=O)n1-c1cccc(NC(=O)Nc2cccnc2C(F)(F)F)c1", "PIK3CB (Human)", 7.64),
]
